Values from patent US20250027068A1

For each entry below, report its Enzyme Activity Endpoint Assay: IgG value.
- assayed-system: pooled human IgG (human IgG1, 2, 3 and 4) (human); also: test concentration or dose not given here
- assay-summary: cell-based or functional assay
Answers are plain numbers, in ng/µL.

Example entries and their recorded answers appear below.
PRT-380 (enzyme) MVTSVWTKGVTPPTNFTYGEDVLHAPYVANQGWYDITKTFNGKDDLLCGAATAGNMLHWWFDQNKEQIENYLKKHPEKQKINFNGEQMFDVKEAIDTKDSQLDSKLFEYFKEKAFPYLSTKHLGVFPDHVIDMFINGYRLSLTNHGPTPVKRGSKDPRGGIFDAVFTRGDQSKLLTNRHDFKEKTLKEISDLIKQELTEGKALGISHTYANARINHVINLWGADFDAEGNLEAIYVTDSDSNASIGMKKYFVGVNSNGKVAISAKEIEEDNIGAQVLGLFTLSTGQDIWNQTN; 219
PRT-401 (enzyme) MVTSVWTKGVTPPADFTQGEDVFHAPYVANQGWYDITKEFNGKDDLLCGAATAGNMLHWWFDQNKEYIEAYLKKHPEKQKIMFGDQELLDVRKAINTKGSQKNSELFNYFRDKAFPNLSARRLGVMPDLVLDMFINGYYLNVTKTQTTDVNRTYQEKDKRGGIFDAVFTRGDQSKLLTSRHDFKEKGLKEISDLIKQELTEGKALGLSHTYANVRINHVINLWGADFDSDGNLKAIYVTDSDSNASIGMKKYFVGVNSAGKVAISAKEIKEDNIGAQVLGLFTLSTGQDIWNQTN; 128
PRT-410 (enzyme) MVTSVWTKGVTPPADFTQGEDVFHAPYVANQGWYDITKTFNGKDDLLCGAATAGNMLHWWFDQNKEYIEAYLKKHPEKQKIMFGDQELLDVRKAINTKGSQKNSELFNYFRDKAFPNLSARRLGVMPDLVLDMFINGYYLNVTKTQTTDVNRTYQEKDKRGGIFDAVFTRGDQSKLLTSRHDFKEKGLKEISDLIKQELTEGKALGLSHTYANVRINHVINLWGADFDSDGNLKAIYVTDSDTNASIGMKKYFVGVNSAGKVAISAKEIKEDNIGAQVLGLFTLSTGQDIWNQTN; 206

Sample PRT-386 (enzyme) MVTSVWTKGVTPPTNFTYGEDVLHAPYVANQGWYDITKTFNGKDDLLCGAATAGNMLHWWFDQNKEQIENYLKKHPEKQKINFNGEQMFDVKEAIDTKDSQLDSKLFEYFKEKAFPYLSTKHLGVFPDHVIDMFINGYRLSLTNHGPTPVKRGSKDPRGGIFDAVFTRGDQSKLLTNRHDFKEKTLKEISDLIKQELTEGKALGISHTYANVRINHVINLWGADFDAEGNLEAIAVTDSDSNASIGMKKYFVGVNSNGKVAISAKEIEEDNIGAQVLGLFTLSTGQDIWNQTN — what was its Enzyme Activity Endpoint Assay: IgG? 0
